assay: Intrinsic clearance in human liver microsomes; format: ADME, microsome
Could you please report measured CLH for the items listed next?

Lookup result for CC(C)C[C@@H]1NC(=O)[C@H](Cc2c[nH]c3ccccc23)NC(=O)[C@@H](CCCN)NC(=O)[C@H](CC(=O)N2CCC(Oc3ccc(OC(F)(F)F)cc3)CC2)NC(=O)[C@H](C(C)C)NC(=O)[C@@H](CC(C)C)NC1=O ; measured CLH: 0.4 mL/min/g

Lookup result for CC[C@@H](C)[C@@H]1NC(=O)[C@@H](CC(C)C)NC(=O)[C@H](CC(C)C)NC(=O)[C@H](Cc2c[nH]c3ccccc23)NC(=O)[C@@H](CCCN)NC(=O)[C@H](CC(N)=O)NC1=O ; measured CLH: 0.87 mL/min/g

Lookup result for CCCCNC(=O)C[C@@H]1NC(=O)[C@H](C(C)C)NC(=O)[C@@H](CC(C)C)NC(=O)[C@H](CC(C)C)NC(=O)[C@H](Cc2c[nH]c3ccccc23)NC(=O)[C@@H](CCCN)NC1=O ; measured CLH: 1.69 mL/min/g

Lookup result for CC(C)C[C@@H]1NC(=O)[C@H](Cc2c[nH]c3ccccc23)NC(=O)[C@@H](CCCN)NC(=O)[C@H](CC(=O)NCc2ccccc2)NC(=O)[C@H](C(C)C)NC(=O)[C@@H](CC(C)C)NC1=O ; measured CLH: 0.88 mL/min/g

Lookup result for CC(C)C[C@@H]1NC(=O)[C@H](Cc2c[nH]c3ccccc23)NC(=O)[C@@H](CCCN)NC(=O)[C@H](CC(=O)N2CCCCC2)NC(=O)[C@H](C(C)C)NC(=O)[C@@H](CC(C)C)NC1=O ; measured CLH: 1.9 mL/min/g

* * *

test: Kinetic aqueous solubility of the compound by CLND method; type: physicochemical; settings: buffer; read-out: Kinetic_solubility
READOUT NAME: solubility kinetic
Answer format: number, then unit.

Lookup result for CC[C@@H](C)[C@@H]1NC(=O)[C@@H](CC(C)C)NC(=O)[C@H](CC(C)C)NC(=O)[C@H](Cc2c[nH]c3ccccc23)NC(=O)[C@@H](CCCN)NC(=O)[C@H](CC(N)=O)NC1=O ; measured solubility kinetic: 177 µM

* * *

experiment: Cmax in C57BL/6J mouse at 25 mg/kg, ip; assay type: ADME, organism-based; design: dose 25 mg/kg, route intraperitoneal; settings: in vivo
Residues, ends and D or L forms follow the SMILES beside them.
Could you please report measured Cmax for the items listed next?
Give the value in ng/mL but do not write ng/mL after it.

Lookup result for CC[C@H](C)[C@@H]1NC(=O)[C@@H](CC(C)C)NC(=O)[C@H](CC(C)C)NC(=O)[C@H](Cc2c[nH]c3ccccc23)NC(=O)[C@@H](CCCN)NC(=O)[C@H](CC(N)=O)NC1=O ; measured Cmax: 6330

Lookup result for CC[C@H](C)[C@@H]1NC(=O)[C@@H](CC(C)C)NC(=O)[C@H](CC(C)C)NC(=O)[C@H](Cc2c[nH]c3ccccc23)NC(=O)[C@@H](CCCNC(=N)N)NC(=O)[C@H](CC(N)=O)NC1=O (HELM PEPTIDE1{I.N.[dR].W.L.[dL]}$PEPTIDE1,PEPTIDE1,1:R1-6:R2$$$V2.0) ; measured Cmax: 3260

* * *

assay: Permeability of the compound at pH 7.4 at […] incubated for 3 hrs under shaking condition by HPLC method; type: ADME; conditions: not told, read-out: permeability
Residues, ends and D or L forms follow the SMILES beside them.
READOUT NAME: Papp at 3 h

Lookup result for CC(C)C[C@@H]1NC(=O)[C@H](Cc2c[nH]c3ccccc23)NC(=O)[C@@H](CCCN)NC(=O)[C@H](CC(N)=O)NC(=O)[C@H](C(C)C)NC(=O)[C@@H](CC(C)C)NC1=O (HELM PEPTIDE1{[NCCC[C@@H](N[*:1])C(=O)[*:2]].W.L.[dL].V.N}$PEPTIDE1,PEPTIDE1,1:R1-6:R2$$$V2.0) ; measured Papp at 3 h: < 0.65 ×10⁻⁶ cm/s

Lookup result for CC[C@H](C)[C@@H]1NC(=O)[C@@H](CC(C)C)NC(=O)[C@H](CC(C)C)NC(=O)[C@H](Cc2c[nH]c3ccccc23)NC(=O)[C@@H](CCCN)NC(=O)[C@H](CC(N)=O)NC1=O ; measured Papp at 3 h: < 1 ×10⁻⁶ cm/s
